- CONDITIONS: in n-propanol, 293.15 K
EXPERIMENTAL_ENDPOINT: solubility (mole fraction)
One number for each entry.

Can you look up the measured solubility (mole fraction) of `O=C(O)c1ccc(Br)cn1` for me? 0.0182

---

- CONDITIONS: in ethyl acetate, 318.15 K
EXPERIMENTAL_ENDPOINT: solubility (mole fraction)
One number for each entry.

Can you look up the measured solubility (mole fraction) of `O=C(O)c1ccc(Br)cn1` for me? 0.0165

---

- CONDITIONS: in ethyl acetate, 298.15 K
EXPERIMENTAL_ENDPOINT: solubility (mole fraction)

Can you look up the measured solubility (mole fraction) of `O=C(O)c1ccc(Br)cn1` for me? 0.00937

---

- CONDITIONS: in acetonitrile, 313.15 K
EXPERIMENTAL_ENDPOINT: solubility (mole fraction)
Give bare numbers.

Can you look up the measured solubility (mole fraction) of `O=C(O)c1ccc(Br)cn1` for me? 0.00607

---

- CONDITIONS: in methanol, 303.15 K
EXPERIMENTAL_ENDPOINT: solubility (mole fraction)
Give bare numbers.

Can you look up the measured solubility (mole fraction) of `O=C(O)c1ccc(Br)cn1` for me? 0.017

---

- CONDITIONS: in methyl acetate, 308.15 K
EXPERIMENTAL_ENDPOINT: solubility (mole fraction)
Numbers only.

Can you look up the measured solubility (mole fraction) of `O=C(O)c1ccc(Br)cn1` for me? 0.0182

---

- CONDITIONS: in methanol, 278.15 K
EXPERIMENTAL_ENDPOINT: solubility (mole fraction)
Give bare numbers.

Can you look up the measured solubility (mole fraction) of `O=C(O)c1ccc(Br)cn1` for me? 0.00787

---

- CONDITIONS: in ethyl acetate, 288.15 K
EXPERIMENTAL_ENDPOINT: solubility (mole fraction)
Numbers only.

Can you look up the measured solubility (mole fraction) of `O=C(O)c1ccc(Br)cn1` for me? 0.00674

---

- CONDITIONS: in 1,4-dioxane, 308.15 K
EXPERIMENTAL_ENDPOINT: solubility (mole fraction)

Can you look up the measured solubility (mole fraction) of `O=C(O)c1ccc(Br)cn1` for me? 0.0574

---

- CONDITIONS: in ethanol, 283.15 K
EXPERIMENTAL_ENDPOINT: solubility (mole fraction)
Give bare numbers.

Can you look up the measured solubility (mole fraction) of `O=C(O)c1ccc(Br)cn1` for me? 0.0103

---

- CONDITIONS: in methyl acetate, 318.15 K
EXPERIMENTAL_ENDPOINT: solubility (mole fraction)
One number for each entry.

Can you look up the measured solubility (mole fraction) of `O=C(O)c1ccc(Br)cn1` for me? 0.0221

---

- CONDITIONS: in isopropanol, 303.15 K
EXPERIMENTAL_ENDPOINT: solubility (mole fraction)
One number for each entry.

Can you look up the measured solubility (mole fraction) of `O=C(O)c1ccc(Br)cn1` for me? 0.0213

---

- CONDITIONS: in n-propanol, 318.15 K
EXPERIMENTAL_ENDPOINT: solubility (mole fraction)

Can you look up the measured solubility (mole fraction) of `O=C(O)c1ccc(Br)cn1` for me? 0.0391

---

- CONDITIONS: in ethyl acetate, 308.15 K
EXPERIMENTAL_ENDPOINT: solubility (mole fraction)
Answers are plain numbers.

Can you look up the measured solubility (mole fraction) of `O=C(O)c1ccc(Br)cn1` for me? 0.0126

---

- CONDITIONS: in THF, 293.15 K
EXPERIMENTAL_ENDPOINT: solubility (mole fraction)
Numbers only.

Can you look up the measured solubility (mole fraction) of `O=C(O)c1ccc(Br)cn1` for me? 0.0478

---

- CONDITIONS: in acetonitrile, 278.15 K
EXPERIMENTAL_ENDPOINT: solubility (mole fraction)
Answers are plain numbers.

Can you look up the measured solubility (mole fraction) of `O=C(O)c1ccc(Br)cn1` for me? 0.00178

---

- CONDITIONS: in ethyl acetate, 313.15 K
EXPERIMENTAL_ENDPOINT: solubility (mole fraction)
One number for each entry.

Can you look up the measured solubility (mole fraction) of `O=C(O)c1ccc(Br)cn1` for me? 0.0144

---

- CONDITIONS: in n-propanol, 298.15 K
EXPERIMENTAL_ENDPOINT: solubility (mole fraction)
Give bare numbers.

Can you look up the measured solubility (mole fraction) of `O=C(O)c1ccc(Br)cn1` for me? 0.0216

---

- CONDITIONS: in THF, 278.15 K
EXPERIMENTAL_ENDPOINT: solubility (mole fraction)
Numbers only.

Can you look up the measured solubility (mole fraction) of `O=C(O)c1ccc(Br)cn1` for me? 0.0326

---

- CONDITIONS: in acetonitrile, 298.15 K
EXPERIMENTAL_ENDPOINT: solubility (mole fraction)
Numbers only.

Can you look up the measured solubility (mole fraction) of `O=C(O)c1ccc(Br)cn1` for me? 0.00381

---

- CONDITIONS: in THF, 298.15 K
EXPERIMENTAL_ENDPOINT: solubility (mole fraction)

Can you look up the measured solubility (mole fraction) of `O=C(O)c1ccc(Br)cn1` for me? 0.0543

---

- CONDITIONS: in ethanol, 308.15 K
EXPERIMENTAL_ENDPOINT: solubility (mole fraction)

Can you look up the measured solubility (mole fraction) of `O=C(O)c1ccc(Br)cn1` for me? 0.0241

---

- CONDITIONS: in acetonitrile, 293.15 K
EXPERIMENTAL_ENDPOINT: solubility (mole fraction)
Give bare numbers.

Can you look up the measured solubility (mole fraction) of `O=C(O)c1ccc(Br)cn1` for me? 0.0032
